Test system: T. cruzi trypomastigotes, Arequipa strain
Assay overview: Screening against bloodstream trypomastigotes, Arequipa strain
Type: cell-based, Trypanosoma cruzi
Experimental parameters: IC50 Vero cells/IC50 trypomastigotes
# selectivity index (SI), Arequipa strain, trypom. forms annotations
Please state the value as a number alone, without comment.

// worked examples, selectivity index (SI), Arequipa strain, trypom. forms included
cpd_smiles=N#C[Se]c1ccc(NC(=O)c2ccc([N+](=O)[O-])cc2)cc1 measurement=14
cpd_smiles=N#C[Se]c1ccc(NC(=O)c2ccc(C(F)(F)F)cc2)cc1 measurement=56
cpd_smiles=N#C[Se]c1ccc(NC(=O)c2cccs2)cc1 measurement=5

Now look at this one.
Endpoint output: selectivity index (SI), Arequipa strain, trypom. forms of `N#C[Se]c1ccc(NC(=O)c2ccco2)cc1` . Value?
50

---

# pIC50 annotations
Tested on: Vero cells infected with T. cruzi Arequipa strain
Assay overview: Infection rate in Vero cells (infected cells), Arequipa strain
Format: cell-based
Experimental parameters: Trypanosoma cruzi, 72 h of treatment
FYI, pIC50 means -log10 of a concentration in mol per litre.

compound="N#C[Se]c1ccc(NC(=O)c2ccc(C(F)(F)F)cc2)cc1 [Compound 26]" measurement=4.65
compound="O=C(Cn1ccnc1[N+](=O)[O-])NCc1ccccc1 [BZN, benznidazole, reference compound]" measurement=4.82

Endpoint output: pIC50 of N#C[Se]c1ccc(NC(=O)c2ccco2)cc1 [Compound 28] . Value?
4.71

---

Tested on: T. cruzi epimastigotes, Tulahuen strain
Assay overview: Screening against extracellular epimastigotes, Tulahuen strain
Type: cell-based, Trypanosoma cruzi
Experimental parameters: Trypanosoma cruzi, TULAHUEN; 48 h + 24 h resazurin; read-out: Activity IC50, epimastigote form, Tulahuen strain
# pIC50 annotations
FYI, pIC50 means -log10 of a concentration in mol per litre.

compound=N#C[Se]c1ccc(NC(=O)c2ccc(C#N)cc2)cc1 tested_target="T. cruzi epimastigotes, Tulahuen strain" attribute_measured=pIC50 measurement=4.81

Endpoint output: pIC50 of `N#C[Se]c1ccc(NC(=O)c2ccno2)cc1` . Value?
4.82

Follow-up item: O=C(Cn1ccnc1[N+](=O)[O-])NCc1ccccc1 [BZN, benznidazole, reference compound]
4.71

Follow-up item: `N#C[Se]c1ccc(NC(=O)C23CC4CC(CC(C4)C2)C3)cc1`
5.09

Follow-up item: `Cc1ccc(OP(=O)(Nc2ccc([Se]C#N)cc2)Oc2ccc(C)cc2)cc1`
4.52

Follow-up item: `COP(=O)(Nc1ccc([Se]C#N)cc1)OC`
4.74

Follow-up item: `N#C[Se]c1ccc(NC(=O)c2ccc([N+](=O)[O-])cc2)cc1`
4.60

---

Test system: T. cruzi epimastigotes, Tulahuen strain
Assay overview: Screening against extracellular epimastigotes, Tulahuen strain
Format: cell-based, Trypanosoma cruzi
Experimental parameters: Trypanosoma cruzi, TULAHUEN; 48 h + 24 h resazurin; read-out: Activity IC50, epimastigote form, Tulahuen strain
pIC50: −log10 of the molar value.
Rule: pIC50 of 5 or more gives 1; anything lower gives 0.

Some solved entries appear below for comparison.
compound="N#C[Se]c1ccc(NP(=O)(Oc2ccccc2)Oc2ccccc2)cc1 [Compound 37]" answer_label=0
compound="Cc1ccc(C(=O)Nc2ccc([Se]C#N)cc2)cc1 [Compound 27]" answer_label=1
compound="CSc1ccc(C(=O)Nc2ccc([Se]C#N)cc2)cc1 [Compound 34]" answer_label=0
compound="O=C(/C=C/c1ccccc1)Nc1ccc([Se][Se]c2ccc(NC(=O)/C=C/c3ccccc3)cc2)cc1 [Compound 12]" answer_label=0
compound="N#C[Se]c1ccc(NC(=O)c2ccco2)cc1 [Compound 28]" answer_label=1
compound="O=C(Nc1ccc([Se][Se]c2ccc(NC(=O)c3ccc([N+](=O)[O-])cc3)cc2)cc1)c1ccc([N+](=O)[O-])cc1 [Compound 5]" answer_label=0
compound="COc1ccc(C(=O)Nc2ccc([Se]C#N)cc2)cc1 [Compound 23]" answer_label=0
compound="O=C(Nc1ccc([Se][Se]c2ccc(NC(=O)c3cccc4ccccc34)cc2)cc1)c1cccc2ccccc12 [Compound 13]" answer_label=0

Identify whether the reported pIC50 of the following compound is 5 or greater: COP(=O)(Nc1ccc([Se][Se]c2ccc(NP(=O)(OC)OC)cc2)cc1)OC [Compound 15]
0

Follow-up item: N#C[Se]c1ccc(NC(=O)c2ccc(C(F)(F)F)cc2)cc1 [Compound 26]
1

Follow-up item: CSc1ccc(C(=O)Nc2ccc([Se][Se]c3ccc(NC(=O)c4ccc(SC)cc4)cc3)cc2)cc1 [Compound 14]
0

Follow-up item: O=C(Nc1ccc([Se][Se]c2ccc(NC(=O)C34CC5CC(CC(C5)C3)C4)cc2)cc1)C12CC3CC(CC(C3)C1)C2 [Compound 11]
0

Follow-up item: N#C[Se]c1ccc(NP(=O)(Nc2ccccc2)Oc2ccccc2)cc1 (centres unmarked) [Compound 40]
0

Follow-up item: O=C(Nc1ccc([Se][Se]c2ccc(NC(=O)c3ccccc3)cc2)cc1)c1ccccc1 [Compound 1]
0

Follow-up item: N#C[Se]c1ccc(NC(=O)c2ccc(Cl)cc2)cc1 [Compound 22]
0

Follow-up item: O=P(Nc1ccc([Se][Se]c2ccc(NP(=O)(Oc3ccccc3)Oc3ccccc3)cc2)cc1)(Oc1ccccc1)Oc1ccccc1 [Compound 16]
0

---

pIC50: −log10 of the molar value.
human erythrocytes CuZn-SOD (Homo sapiens): recorded pIC50 for assorted compounds
Sequence (P00441 whole entry): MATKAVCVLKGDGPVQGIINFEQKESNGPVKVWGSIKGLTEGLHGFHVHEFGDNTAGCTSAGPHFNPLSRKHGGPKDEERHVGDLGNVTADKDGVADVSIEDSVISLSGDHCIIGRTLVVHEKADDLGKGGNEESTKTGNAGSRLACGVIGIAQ

compound="N#C[Se]c1ccc(NC(=O)c2ccc(C(F)(F)F)cc2)cc1 [Compound 26]" measurement="< 4.00"

Now look at this one.
Endpoint output: pIC50 of N#C[Se]c1ccc(NC(=O)c2ccco2)cc1 [Compound 28] . Value?
< 4.00

---

Test system: Vero cells
Assay overview: Cytotoxicity test on Vero cells
Format: cell-based
Experimental parameters: Chlorocebus sabaeus, 48 h + 24 h resazurin, read-out: Toxicity IC50 Vero cell
Attribute measured: IC50 (µM)
Value expressed in µM; do not type the unit.

Endpoint output: IC50 of O=C(Cn1ccnc1[N+](=O)[O-])NCc1ccccc1 [BZN, benznidazole, reference compound] . Value?
80.4

---

System: Trypanosoma cruzi Fe-SOD
Assay overview: SOD enzymatic inhibition, Fe-SOD
Type: biochemical
Attribute measured: pIC50
FYI, pIC50 means -log10 of a concentration in mol per litre.

cpd_smiles=N#C[Se]c1ccc(NC(=O)c2ccc(C(F)(F)F)cc2)cc1 attribute_measured=pIC50 measurement=4.28

// map `N#C[Se]c1ccc(NC(=O)c2ccco2)cc1` to recorded pIC50 (system: Trypanosoma cruzi Fe-SOD)
5.03

---

System: T. cruzi epimastigotes, Tulahuen strain
Assay overview: Screening against extracellular epimastigotes, Tulahuen strain
Type: cell-based, Trypanosoma cruzi
Experimental parameters: Trypanosoma cruzi, TULAHUEN; 48 h + 24 h resazurin; read-out: Activity IC50, epimastigote form, Tulahuen strain
# IC50 annotations
Value expressed in µM; do not type the unit.

cpd_smiles=N#C[Se]c1ccc(NC(=O)c2cccc3ccccc23)cc1 tested_target="T. cruzi epimastigotes, Tulahuen strain" attribute_measured=IC50 result_unit=µM measurement=10.8
cpd_smiles=N#C[Se]c1ccc(NC(=O)c2cccs2)cc1 tested_target="T. cruzi epimastigotes, Tulahuen strain" attribute_measured=IC50 result_unit=µM measurement=6.6

Now look at this one.
Endpoint output: IC50 of `N#C[Se]c1ccc(NC(=O)/C=C/c2ccccc2)cc1` . Value?
7.9

---

Test system: T. cruzi epimastigotes, Tulahuen strain
Assay overview: Screening against extracellular epimastigotes, Tulahuen strain
Format: cell-based, Trypanosoma cruzi
Experimental parameters: Trypanosoma cruzi, TULAHUEN; 48 h + 24 h resazurin; read-out: Activity IC50, epimastigote form, Tulahuen strain
pIC50: −log10 of the molar value.
# pIC50 annotations

cpd_smiles=CCOP(=O)(Nc1ccc([Se]C#N)cc1)OCC attribute_measured=pIC50 measurement="< 4.30"

Endpoint output: pIC50 of `CCOP(=O)(Nc1ccc([Se][Se]c2ccc(NP(=O)(OCC)OCC)cc2)cc1)OCC` . Value?
< 4.30

Follow-up item: `O=C(Nc1ccc([Se][Se]c2ccc(NC(=O)c3cccs3)cc2)cc1)c1cccs1`
< 4.30

Follow-up item: `O=C(Nc1ccc([Se][Se]c2ccc(NC(=O)c3ccco3)cc2)cc1)c1ccco1`
< 4.30

Recorded values, source paper PMC8480776.
